- study system: UniProt P23975
- Sequence (P23975 whole entry): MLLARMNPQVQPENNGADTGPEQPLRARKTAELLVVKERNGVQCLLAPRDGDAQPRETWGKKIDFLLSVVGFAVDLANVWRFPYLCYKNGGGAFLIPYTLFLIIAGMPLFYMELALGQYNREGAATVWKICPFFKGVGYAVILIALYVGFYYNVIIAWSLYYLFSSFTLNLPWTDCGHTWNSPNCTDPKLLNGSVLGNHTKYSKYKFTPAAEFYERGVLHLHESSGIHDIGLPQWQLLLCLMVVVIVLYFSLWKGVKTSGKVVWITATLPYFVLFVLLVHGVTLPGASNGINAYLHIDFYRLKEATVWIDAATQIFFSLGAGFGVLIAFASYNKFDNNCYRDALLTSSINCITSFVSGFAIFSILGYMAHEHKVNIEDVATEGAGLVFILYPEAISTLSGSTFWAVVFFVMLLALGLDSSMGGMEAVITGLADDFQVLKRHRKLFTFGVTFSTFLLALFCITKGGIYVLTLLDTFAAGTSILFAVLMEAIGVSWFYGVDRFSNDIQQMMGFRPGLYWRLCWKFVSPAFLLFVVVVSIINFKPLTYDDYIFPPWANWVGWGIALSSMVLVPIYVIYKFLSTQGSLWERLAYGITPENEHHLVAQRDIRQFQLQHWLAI
- assay procedure: DRUGMATRIX: Norepinephrine Transporter radioligand binding (ligand: [125I] RTI-55)
- Format: cell membranes, MDCK, Membrane
- experimental setup: Not Active = under 50% inhibition at 10 µM; read-out: Ki
Under this convention, t denotes Ki strictly below 4 µM and f denotes Ki at or above 4 µM.

{"columns": ["compound", "study system", "assigned class"],
 "data": [
  ["Nc1nc2ccc(OC(F)(F)F)cc2s1 [RILUZOLE]", "UniProt P23975", "t"],
  ["Cc1ccc2cc3c(ccc4ccccc43)c3c2c1CC3 [3-METHYLCHOLANTHRENE]", "UniProt P23975", "f"],
  ["Nc1c2c(nc3ccccc13)CCCC2 [TACRINE]", "UniProt P23975", "t"],
  ["c1ccc(Nc2ccc(Nc3ccccc3)cc2)cc1", "UniProt P23975", "t"],
  ["CC/C(=C(\\c1ccccc1)c1ccc(OCCN(C)C)cc1)c1ccccc1 [TAMOXIFEN]", "UniProt P23975", "t"],
  ["CN(Cc1ccc(C(C)(C)C)cc1)Cc1cccc2ccccc12 [BUTENAFINE]", "UniProt P23975", "t"],
  ["O=c1ncn2nc(Sc3ccc(F)cc3F)ccc2c1-c1c(Cl)cccc1Cl [NEFLAMAPIMOD]", "UniProt P23975", "f"],
  ["CN(C)CCCN1c2ccccc2Sc2ccccc21 [PROMAZINE]", "UniProt P23975", "t"],
  ["Cc1ccc(-c2cc(C(F)(F)F)nn2-c2ccc(S(N)(=O)=O)cc2)cc1 [CELECOXIB]", "UniProt P23975", "f"],
  ["C1CCC(C(CC2CCCCN2)C2CCCCC2)CC1 (stereo not given) [PERHEXILINE]", "UniProt P23975", "t"]
]}
